Assay: Stability in rat liver microsomes assessed as compound remaining at 1 uM preincubated for 10 mins followed by NADPH addition measured after 1 hr by LC-MS/MS method
Type: ADME, microsome
Conditions: read-out: Stability
assay_metric: remaining at 1 h, 1 µM (%)

1) C[C@@H]1CN(C(=O)c2nc(Nc3cc(C4CC4)[nH]n3)c3cc(Cl)ccc3n2)CCN1.Cl; 36.9

###

Biological target: UniProt P11712
Sequence (P11712 whole entry): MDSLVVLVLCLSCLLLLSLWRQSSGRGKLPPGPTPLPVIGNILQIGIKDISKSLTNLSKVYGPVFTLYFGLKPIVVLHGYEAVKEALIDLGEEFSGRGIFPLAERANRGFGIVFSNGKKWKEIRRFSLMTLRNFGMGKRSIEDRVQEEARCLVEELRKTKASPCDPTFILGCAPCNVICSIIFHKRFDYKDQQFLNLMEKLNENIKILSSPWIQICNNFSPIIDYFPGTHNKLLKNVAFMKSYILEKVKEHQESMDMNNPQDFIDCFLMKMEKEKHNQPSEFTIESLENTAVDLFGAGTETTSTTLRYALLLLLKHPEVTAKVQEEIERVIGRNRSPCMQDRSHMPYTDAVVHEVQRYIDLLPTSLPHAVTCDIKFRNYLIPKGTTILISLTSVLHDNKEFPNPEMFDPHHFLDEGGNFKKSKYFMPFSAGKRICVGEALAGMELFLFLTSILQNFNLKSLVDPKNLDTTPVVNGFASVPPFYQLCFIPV
Assay: Inhibition of CYP2C9 in human liver microsomes at 10 uM using diclofenac as substrate preincubated for 10 mins followed by NADPH addition measured after 10 mins by LC-MS/MS method
Assay type: ADME
Conditions: probe diclofenac
assay_metric: inhibition at 10 min, 10 µM (%)

1) C[C@@H]1CN(C(=O)c2nc(Nc3cc(C4CC4)[nH]n3)c3cc(Cl)ccc3n2)CCN1.Cl; 15.1

Just for reference, ChEMBL document CHEMBL4028914 is where these values come from.
